# credit: ChEMBL document CHEMBL1250479

Form field: log10(IC50) (one value per entry).
- ASSAY_TARGET: Somatostatin receptor type 3 (Homo sapiens, UniProt P32745)
- Sequence (P32745 whole entry): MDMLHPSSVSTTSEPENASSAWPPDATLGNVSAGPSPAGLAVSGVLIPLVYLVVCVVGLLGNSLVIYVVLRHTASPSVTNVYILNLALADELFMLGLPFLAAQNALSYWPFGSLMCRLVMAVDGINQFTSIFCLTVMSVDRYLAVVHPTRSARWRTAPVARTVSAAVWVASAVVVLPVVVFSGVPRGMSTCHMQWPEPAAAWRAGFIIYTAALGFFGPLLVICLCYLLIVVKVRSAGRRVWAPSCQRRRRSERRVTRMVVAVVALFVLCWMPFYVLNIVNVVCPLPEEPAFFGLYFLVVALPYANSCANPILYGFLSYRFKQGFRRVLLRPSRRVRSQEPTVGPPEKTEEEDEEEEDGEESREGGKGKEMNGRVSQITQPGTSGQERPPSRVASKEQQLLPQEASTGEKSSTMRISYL
- ASSAY_REMARKS: Displacement of [125I]iodotyrosyl from human SST3 receptor expressed in CHO cells
ASSAY_METRIC: log10(IC50) (log10 of the value in nM)

>>> df
                      smiles_representation  observed
0  CS[C@@H]1O[C@H](COCc2ccc(Cl)cc2)[C@@H](O)[C@@H](OCc2ccc3ccccc3c2)[C@H]1NC(=O)CCN      3.80
1  COC[C@H]1O[C@H](OCc2ccc3ccccc3c2)[C@H](NC(=O)CCCN)[C@H](OCc2ccc(Cl)cc2)[C@@H]1O      2.70
2  COC[C@H]1O[C@@H](OCCc2ccccc2)[C@H](NC(=O)CCCN)[C@@H](OCc2ccc3ccccc3c2)[C@@H]1O      3.12
3  COC[C@H]1O[C@@H](OCc2ccc3ccccc3c2)[C@H](NC(=O)CCN)[C@@H](OCc2ccc3ccccc3c2)[C@@H]1O      2.58
4  COC[C@H]1O[C@H](OCCc2ccccc2)[C@H](NC(=O)CCCN)[C@H](OCc2ccc3ccccc3c2)[C@@H]1O      3.92

====

- ASSAY_TARGET: Somatostatin receptor type 4 (Homo sapiens, UniProt P31391)
- Sequence (P31391 whole entry): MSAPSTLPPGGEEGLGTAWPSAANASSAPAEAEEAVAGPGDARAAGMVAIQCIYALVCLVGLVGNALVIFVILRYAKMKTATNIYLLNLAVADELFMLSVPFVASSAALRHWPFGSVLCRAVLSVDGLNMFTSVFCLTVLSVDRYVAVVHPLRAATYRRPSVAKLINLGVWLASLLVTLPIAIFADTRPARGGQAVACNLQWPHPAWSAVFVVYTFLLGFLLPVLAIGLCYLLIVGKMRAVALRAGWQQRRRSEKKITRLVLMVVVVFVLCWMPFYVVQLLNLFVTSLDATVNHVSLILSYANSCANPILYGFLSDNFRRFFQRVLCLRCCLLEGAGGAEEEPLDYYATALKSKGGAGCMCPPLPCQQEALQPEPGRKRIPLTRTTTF
- ASSAY_REMARKS: Displacement of [125I]iodotyrosyl from human SST4 receptor expressed in CHO cells
Form field: IC50 (one value per entry).
ASSAY_METRIC: IC50

In [3]: df
Out[3]:
                      smiles_representation  assay_metric  observed
0  COC[C@H]1O[C@@H](OCc2ccc3ccccc3c2)[C@H](NC(=O)CCCN)[C@@H](OCc2ccc(Cl)cc2)[C@@H]1O          IC50   > 10 µM
1  CS[C@@H]1O[C@H](COCc2ccc(Cl)cc2)[C@@H](O)[C@@H](OCc2ccc3ccccc3c2)[C@H]1NC(=O)CCN          IC50   0.43 µM
2  COC[C@H]1O[C@H](OCCc2ccccc2)[C@H](NC(=O)CCCN)[C@H](OCc2ccc3ccccc3c2)[C@@H]1O          IC50   > 10 µM
